The following compounds are listed with their measured X more potent than Pentamidine values.
# Test system: L. donovani promastigotes
# measurementNotes: Antileishmanial Alamar Blue assay on promastigotes
# Type: cell-based, Leishmania donovani
# settings: L. donovani; ratio of molar IC50 to Pentamidine

1) [Cl][Mn-2]([Cl])([Cl])[Cl].[Cl][Mn-2]([Cl])([Cl])[Cl].[Mn+2].[Mn+2].c1cc(CN2CCCN3CCNCCCN(CC3)CC2)ccc1CN1CCCN2CCNCCCN(CC2)CC1 [TJH412, [Mn2(H2-p-CB-cyclams)][MnCl4]2]    0.17

Reported X more potent than Pentamidine (L. donovani promastigotes) for entry [Cl-].[Cl-].[Fe+2].c1ccc(CN2CCCN3CCN(CCCN(Cc4ccccc4)CC3)CC2)cc1 [NS08, Fe(Bn2Bcyclam)Cl2] is 1.66

Here CC(=O)[O-].F[P-](F)(F)(F)(F)F.[Zn+2].c1ccc(CN2CCN3CCCN(CC2)CCN(Cc2ccccc2)CC3)cc1 [AW041, [Zn(Bn2PBCyclen)(C2H3O2)]PF6] was tested on L. donovani promastigotes, and its X more potent than Pentamidine came to 0.15

* * *

Overview of reported X more potent than Pentamidine across a group of compounds:
# Test system: L. donovani promastigotes
# measurementNotes: Antileishmanial Alamar Blue assay on promastigotes
# Type: cell-based, Leishmania donovani
# settings: L. donovani; ratio of molar IC50 to Pentamidine
# Description: Methods: The compounds were screened in vitro against the promastigote forms of the leishmania parasites employing the Alamar Blue assay as discussed below. Antileishmanial activity of the compounds was tested in vitro against a culture of L. donovani promastigotes, grown in RPMI 1640 medium supplemented with 10% fetal calf serum (FCS, Gibco Chem. Co., Grand Island, NY) at 26° C. […] Percent growth was calculated and plotted versus test concentration for computing the IC50 values.
Could you respond with only the numeric value?

The compound listed as O=[N+]([O-])[O-].O=[N+]([O-])[O-].O=[N+]([O-])[O-].O=[N+]([O-])[O-].O=[N+]([O-])c1ccc(CC2CNCCN(Cc3ccc(CN4CCCN5CCN(CCCNCC4)CC5)cc3)CCCN3CCN(CC3)C2)cc1.[Ni+2].[Ni+2] (stereo not shown) [SJA236, [Ni2(bis-SB-C-Ar-NO2)(NO3)4]] has a reported X more potent than Pentamidine of 0.23

// recorded X more potent than Pentamidine for CN1CCCN2CCN(CCCN(Cc3cc(CN4CCCN5CCN(C)CCCN(CC5)CC4)cc(CN4CCCN5CCN(C)CCCN(CC5)CC4)c3)CC2)CC1 : 0.57

Sample Cl.Cl.Cl.Cl.Cl.Cl.Cl.Cl.c1cc(CN2CCNCCCN3CCN(CC3)CC2)ccc1CN1CCNCCCN2CCN(CC2)CC1 [OB45B, p-SB-homocyclens HCl salt] ; X more potent than Pentamidine observed: 0.13

Entry CC(=O)[O-].F[P-](F)(F)(F)(F)F.F[P-](F)(F)(F)(F)F.F[P-](F)(F)(F)(F)F.[Mn+2].[NH4+].[NH4+].c1ccc(CN2CCN3CCCN(CC2)CCN(Cc2ccccc2)CC3)cc1 [AW036, [Mn(Bn2PBCyclen)(C2H3O2)]PF6•2NH4PF6] ; X more potent than Pentamidine = 0.20

Recorded result, c1cc(CN2CCCN3CCNCCCN(CC3)CC2)ccc1CN1CCCN2CCNCCCN(CC2)CC1 , X more potent than Pentamidine: 0.11

For CC(=O)[O-].CN1CCCN2CCN(CCCN(Cc3ccccc3)CC2)CC1.F[P-](F)(F)(F)(F)F.[Cu+2] [RM56A, [Cu(Bn1Me1Bcyclam)(OAc)]PF6] the compound record lists X more potent than Pentamidine as 0.10

// sample CC(=O)[O-].CC(=O)[O-].F[P-](F)(F)(F)(F)F.F[P-](F)(F)(F)(F)F.O.[Zn+2].[Zn+2].c1cc(CN2CCCN3CCNCCCN(CC3)CC2)ccc1CN1CCCN2CCNCCCN(CC2)CC1 [TJH417B, [Zn2(H2-p-CB-cyclams)(OAc)2][PF6]2•H2O] , its X more potent than Pentamidine was 0.17

The compound identified as O=[N+]([O-])c1ccc(CC2CNCCN(Cc3ccc(CN4CCCN5CCN(CCCNCC4)CC5)cc3)CCCN3CCN(CC3)C2)cc1 (stereo not shown) registered its X more potent than Pentamidine at 0.12

Lab book: X more potent than Pentamidine of c1cc(CN2CCN3CCNCCN(CC3)CC2)ccc1CN1CCN2CCNCCN(CC2)CC1 noted as 0.31

Briefly, X more potent than Pentamidine measured for CC(=O)[O-].CC(=O)[O-].CC(=O)[O-].CC(=O)[O-].O=[N+]([O-])c1ccc(CC2CNCCN(Cc3ccc(CN4CCCN5CCN(CCCNCC4)CC5)cc3)CCCN3CCN(CC3)C2)cc1.[Zn+2].[Zn+2] (stereo not shown) [SJA235, [Zn2(bis-SB-C-Ar-NO2)(OAc)4]] : 0.16

* * *

# Tested on: S. mansoni newly transformed schistosomula (NTS)
# measurementNotes: In vitro testing on Schistosoma mansoni newly transformed schistosomula (NTS), viability score
# Type: cell-based
# settings: Schistosoma mansoni; NTS, 72 hours post-incubation
recordedEndpoint: IC50

# value of IC50, S. mansoni newly transformed schistosomula (NTS), item O=C(C1CCCCC1)N1CC(=O)N2CCc3ccccc3C2C1 (stereo not shown) [Praziquantel, reference compound] = 2.2 µM

* * *

# Tested on: methicillin-resistant S. aureus ATCC 33591 (MRS)
# measurementNotes: Antibacterial broth dilution assay against MRSA (modified CLSI)
# Assay type: cell-based, Staphylococcus aureus
# settings: molar IC50 ratio versus ciprofloxacen
recordedEndpoint: X more potent than ciprofloxacen
Please reply with the value in numeric form only.

Check out these entries, answers already filled in.
1) CN1CCCN2CCN(CCCN(Cc3ccc(CN4CCCN5CCN(C)CCCN(CC5)CC4)cc3)CC2)CC1.[Cl-].[Cl-].[Cl-].[Cl-].[Mn+2].[Mn+2] [JGL16A]    0.02
2) CC(=O)[O-].CC(=O)[O-].CN1CCCN2CCN(CCCN(Cc3cccc(CN4CCCN5CCN(C)CCCN(CC5)CC4)c3)CC2)CC1.F[P-](F)(F)(F)(F)F.F[P-](F)(F)(F)(F)F.[Ni+2].[Ni+2] [CDG009, [Ni2(m-CB-Cyclams)(OAc)2][PF6]2]    0.04
3) CC(=O)[O-].F[P-](F)(F)(F)(F)F.[Ni+2].c1ccc(CN2CCCN3CCCN(CCCN(Cc4ccccc4)CC3)CC2)cc1 [DJD22, [Ni(Bn2PBCyclam)(OAc)]PF6]    0.03
4) CN1CCCN2CCN(CCCN(Cc3cccc(CN4CCCN5CCN(C)CCCN(CC5)CC4)c3)CC2)CC1.Cl.Cl.Cl.Cl.Cl.Cl.Cl.Cl [TJS04, m-CB-cyclams HCl salt]    0.03
5) c1cc(CN2CCN3CCNCCN(CC3)CC2)ccc1CN1CCN2CCNCCN(CC2)CC1    0.10

Tested system methicillin-resistant S. aureus ATCC 33591 (MRS); X more potent than ciprofloxacen recorded for [Cl][Mn-2]([Cl])([Cl])[Cl].[Mn+2].c1ccc(CN2CCCN3CCCN(CCCN(Cc4ccccc4)CC3)CC2)cc1 [BME08, [Mn(Bn2PBCyclam)][MnCl4]] was 0.18

Measured on methicillin-resistant S. aureus ATCC 33591 (MRS), CC(=O)[O-].F[P-](F)(F)(F)(F)F.[Zn+2].c1ccc(CN2CCCN3CCCN(CCCN(Cc4ccccc4)CC3)CC2)cc1 [DJD23, [Zn(Bn2PBCyclam)(OAc)]PF6] has a documented X more potent than ciprofloxacen of 0.05

Form field X more potent than ciprofloxacen for item [Cl-].[Cl-].[Mn+2].c1ccc(CN2CCN3CCN(CC2)CCN(Cc2ccccc2)CC3)cc1 on methicillin-resistant S. aureus ATCC 33591 (MRS): 0.02

The recorded X more potent than ciprofloxacen with methicillin-resistant S. aureus ATCC 33591 (MRS) for CC(=O)[O-].CC(=O)[O-].CN1CCCN2CCN(CCCN(Cc3cccc(CN4CCCN5CCN(C)CCCN(CC5)CC4)c3)CC2)CC1.F[P-](F)(F)(F)(F)F.F[P-](F)(F)(F)(F)F.[Zn+2].[Zn+2] [RM51, [Zn2(m-CB-Cyclams)(OAc)2][PF6]2] was 0.07

Simply: c1ccc(CN2CCN3CCCN(CC2)CCN(Cc2ccccc2)CC3)cc1 , methicillin-resistant S. aureus ATCC 33591 (MRS), X more potent than ciprofloxacen = 0.08

CC(=O)[O-].F[P-](F)(F)(F)(F)F.[Co+2].c1ccc(CN2CCCN3CCCN(CCCN(Cc4ccccc4)CC3)CC2)cc1 [DJD21, [Co(Bn2PBCyclam)(OAc)]PF6] tested on methicillin-resistant S. aureus ATCC 33591 (MRS) gave X more potent than ciprofloxacen: 0.04

* * *

# Test system: C. krusei ATCC 6258
# measurementNotes: Antifungal broth dilution assay against C. krusei (modified CLSI)
# Type: cell-based, Candida krusei
# settings: C. krusei; ratio of molar IC50 to amphotericin B
recordedEndpoint: X more potent than Amphotericin B
# answer = number (no unit)

Recorded X more potent than Amphotericin B, per entry:
1. CC(=O)[O-].F[P-](F)(F)(F)(F)F.[Ni+2].c1ccc(CN2CCCN3CCCN(CCCN(Cc4ccccc4)CC3)CC2)cc1 [DJD22, [Ni(Bn2PBCyclam)(OAc)]PF6]    0.19
2. [Cl][Mn-2]([Cl])([Cl])[Cl].[Mn+2].c1ccc(CN2CCCN3CCCN(CCCN(Cc4ccccc4)CC3)CC2)cc1 [BME08, [Mn(Bn2PBCyclam)][MnCl4]]    0.19
3. CC(=O)[O-].CC(=O)[O-].CC(=O)[O-].F[P-](F)(F)(F)(F)F.F[P-](F)(F)(F)(F)F.F[P-](F)(F)(F)(F)F.[Co+2].[Co+2].[Co+2].c1c(CN2CCNCCN3CCN(CC3)CC2)cc(CN2CCNCCN3CCN(CC3)CC2)cc1CN1CCNCCN2CCN(CC2)CC1 [CDG021, [Co3(tris-SB-Cyclens)(OAc)3][PF6]3]    0.53

c1c(CN2CCNCCN3CCN(CC3)CC2)cc(CN2CCNCCN3CCN(CC3)CC2)cc1CN1CCNCCN2CCN(CC2)CC1 tested on C. krusei ATCC 6258 gave X more potent than Amphotericin B: 0.23

I looked up c1cc(CN2CCNCCCN3CCN(CC3)CC2)ccc1CN1CCNCCCN2CCN(CC2)CC1 and its X more potent than Amphotericin B for C. krusei ATCC 6258 was 0.98
